System: HIV-1BAL
Procedure text: HIV-1BAL infection of CD8-depleted PBMC, FACS (intracellular p24, CD4, CD62L)
Type: cell-based
Condition: HIV-1BAL infected cells
Readout: accumulation of infected CD4−/CD62L− T cells (loss of CD62L)

- Substance smiles: "CC1(C)SCCN(S(=O)(=O)c2ccc(Oc3ccncc3)cc2)[C@H]1C(=O)NO"
  Assay value: "reduced the accumulation"
- Substance smiles: "CNC(=O)[C@H](Cc1ccccc1)NC(=O)[C@H](CC(C)C)[C@H](CSc1cccs1)C(=O)NO"
  Assay value: "reduced the accumulation"

====

Subject of test: recombinant ADAM10 (Homo sapiens, UniProt O14672)
Sequence (O14672 214-748): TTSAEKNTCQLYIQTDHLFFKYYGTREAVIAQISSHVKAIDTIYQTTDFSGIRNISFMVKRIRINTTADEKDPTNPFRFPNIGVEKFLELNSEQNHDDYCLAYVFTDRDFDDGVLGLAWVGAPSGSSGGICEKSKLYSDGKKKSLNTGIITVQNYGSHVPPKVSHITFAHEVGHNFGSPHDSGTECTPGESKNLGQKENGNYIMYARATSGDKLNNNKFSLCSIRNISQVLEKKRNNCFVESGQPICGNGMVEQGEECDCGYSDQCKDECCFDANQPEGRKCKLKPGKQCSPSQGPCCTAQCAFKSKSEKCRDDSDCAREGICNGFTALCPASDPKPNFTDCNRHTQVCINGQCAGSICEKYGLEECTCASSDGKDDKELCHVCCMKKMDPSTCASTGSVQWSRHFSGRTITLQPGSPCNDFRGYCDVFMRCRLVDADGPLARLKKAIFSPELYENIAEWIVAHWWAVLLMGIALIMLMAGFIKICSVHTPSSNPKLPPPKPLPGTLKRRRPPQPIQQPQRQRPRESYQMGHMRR
Procedure text: Kinetic cleavage of fluorogenic TNF-α peptide ES003 by recombinant ADAM10
Condition: ES003 substrate, 4-h time point, non-linear regression; read-out: Inhibition constant Ki ADAM10
Readout: pKi
Quick note: pKi values are minus log10 of concentrations in mol/L.

Task item: Item CC1(C)SCCN(S(=O)(=O)c2ccc(Oc3ccncc3)cc2)[C@H]1C(=O)NO has what recorded pKi?
Reply: 8.70

Task item: And the next one, CNC(=O)[C@@H](NC(=O)[C@H](CCCc1ccccc1)[C@H](C)N(O)C=O)C(C)(C)C [GI254023X] ?
Reply: 7.96

====

Provide the recorded Ki for the entries that follow.
Subject of test: recombinant ADAM17 (Homo sapiens)
Sequence (P78536 215-824): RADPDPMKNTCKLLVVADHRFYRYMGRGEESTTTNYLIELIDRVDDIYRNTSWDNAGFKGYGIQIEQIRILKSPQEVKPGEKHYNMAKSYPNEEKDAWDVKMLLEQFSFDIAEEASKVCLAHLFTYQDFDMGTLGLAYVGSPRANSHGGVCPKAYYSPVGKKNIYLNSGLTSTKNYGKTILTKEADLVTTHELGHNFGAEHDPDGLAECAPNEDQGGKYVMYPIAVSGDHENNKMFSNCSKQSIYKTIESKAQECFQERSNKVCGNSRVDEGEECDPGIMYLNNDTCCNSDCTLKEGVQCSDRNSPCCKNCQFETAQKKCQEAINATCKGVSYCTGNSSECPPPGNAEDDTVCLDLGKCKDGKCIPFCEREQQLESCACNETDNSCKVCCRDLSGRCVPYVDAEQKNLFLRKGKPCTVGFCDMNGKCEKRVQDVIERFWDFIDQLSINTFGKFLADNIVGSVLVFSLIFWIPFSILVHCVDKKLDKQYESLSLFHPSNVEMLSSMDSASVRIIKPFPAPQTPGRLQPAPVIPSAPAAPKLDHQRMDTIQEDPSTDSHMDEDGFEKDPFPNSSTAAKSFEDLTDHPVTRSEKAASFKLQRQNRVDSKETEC
Procedure text: Kinetic cleavage of fluorogenic TNF-α peptide ES003 by recombinant ADAM17
Condition: ES003 substrate, 4-h time point, non-linear regression; read-out: Inhibition constant Ki ADAM17
Just the number please, in nM, no unit attached.

Task item: Can you look up the measured Ki of CC1(C)SCCN(S(=O)(=O)c2ccc(Oc3ccncc3)cc2)[C@H]1C(=O)NO for me?
Reply: 48

Task item: Can you check CNC(=O)[C@@H](NC(=O)[C@H](CCCc1ccccc1)[C@H](C)N(O)C=O)C(C)(C)C [GI254023X] next?
Reply: 3600
